B1: OR4K15 (parent)
chain: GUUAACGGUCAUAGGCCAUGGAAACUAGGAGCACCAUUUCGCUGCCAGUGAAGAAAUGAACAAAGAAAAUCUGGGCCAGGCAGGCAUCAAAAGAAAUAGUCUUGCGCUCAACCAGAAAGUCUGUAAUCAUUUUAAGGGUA

- Variants of: B1
- ASSAY_REMARKS: self-cleavage, relative activity (ratio to wild type); higher = more cleavage; in vitro, sequencing; the parent is a self-cleaving ribozyme
Would you please tag the item TRUE when its self-cleavage is 0.4 or above, and FALSE when it is below?

U39C A51U : TRUE
A5U A78G : TRUE
A90G A94G : TRUE
A4G A114C : FALSE
G75A A91G : FALSE
A89G U131A : FALSE
C35A U43A : TRUE
A56G A118G : TRUE
A33G A64C : TRUE
A69G A126U : TRUE
G41A U122C : TRUE
